- system_under_test: RUNX1 (UniProt Q01196)
- Sequence (Q01196 whole entry): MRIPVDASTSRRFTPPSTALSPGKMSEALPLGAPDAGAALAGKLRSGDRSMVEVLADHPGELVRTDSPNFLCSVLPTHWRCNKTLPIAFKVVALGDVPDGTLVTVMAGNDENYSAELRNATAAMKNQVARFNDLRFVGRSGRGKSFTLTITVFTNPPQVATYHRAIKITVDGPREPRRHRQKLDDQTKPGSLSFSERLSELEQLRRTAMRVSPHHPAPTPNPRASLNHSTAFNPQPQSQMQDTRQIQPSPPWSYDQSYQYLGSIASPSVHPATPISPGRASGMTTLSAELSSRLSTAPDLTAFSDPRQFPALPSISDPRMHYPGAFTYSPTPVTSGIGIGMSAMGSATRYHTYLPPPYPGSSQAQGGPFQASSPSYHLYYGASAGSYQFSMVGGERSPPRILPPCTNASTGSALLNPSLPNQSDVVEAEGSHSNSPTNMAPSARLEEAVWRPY
- protocol_text: RUNX1 binding intensity (PBM fluorescence) in presence of ETS1, normalised to RUNX1-only experiment (arbitrary fluorescence units); higher = stronger binding;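 further: Full-length recombinant human ETS1 or RUNX1 bound to double-stranded 36-bp genomic probes on microarrays, detected by protein-specific primary antibody and Alexa488 secondary, spot fluorescence as median of four replicate spots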
- condition_set: RUNX1 concentration 2 nM; ETS1 concentration 25 nM
measure: RUNX1 binding intensity

sequence_data=CTCCCCCTTTTTTTCCTGTGGTTTCATTGCATGTTG measurement=4190
sequence_data=CCCACTGCGCCAGGATGTGGTCAGGTCGGTGACGTT measurement=3410
sequence_data=AGGCGGCAGGAAATGACCCCATCCCGCAGCCTGGGC measurement=2040
sequence_data=CACTTCCTGTCAAAGCCAGTTCCTTAACCGCTTAGG measurement=2930
sequence_data=CACTTCCTCTGTGACTGCAGGTTTCCAACCACAAGC measurement=2370
sequence_data=TGTCCGCACCCCACTTCCGCCCCGCAGAGGGCAACG measurement=3130
